Recorded values, source ChEMBL document CHEMBL1201862.

# Test system: Malme-3M
# Experiment Notes: NCI tumour cell line growth inhibition, 48 h
Calls of active or inactive are those of the source. Rule as the data show it: active = GI50 up to about 1.1 µM and inactive = higher. Residues, ends and D or L forms follow the SMILES beside them. *: point of attachment. Boc = CC(C)(C)OC(=O)*; OBn = c1ccc(CO*)cc1
Below, each entry is listed with its recorded GI50.

Compound: COc1ccc2c(C)cc(N/N=C/c3sccc3C)nc2c1
Assayed System: Malme-3M
GI50: 6.95 µM (inactive)
//
Compound: CC1=NN(C(=O)CC(=O)N(C(=O)c2ccccc2Cl)c2ccc(C)cc2)C(=O)C1/N=N/c1ccc([N+](=O)[O-])cc1 (stereo not drawn)
Assayed System: Malme-3M
GI50: > 100 µM (inactive)
//
Compound: CO[C@@H](c1ccccc1)[C@H](O)[C@@](O)(c1ccccc1)P(=O)(OC)OC
Assayed System: Malme-3M
GI50: 36.6 µM (inactive)
//
Compound: CC(C)C(NC(=O)C(Cc1ccccc1)NC(=O)OC(C)(C)C)C(=O)NCC(=O)OCc1ccccc1 (stereo not drawn) (Boc-Phe-Val-Gly-OBn; configuration not given here)
Assayed System: Malme-3M
GI50: 18.5 µM (inactive)
//
Compound: O=C(O)c1ccccc1CC1Cc2ccccc2C1=O (stereo not drawn)
Assayed System: Malme-3M
GI50: > 100 µM (inactive)
//
Compound: Nc1ccc(-c2ccc(Nc3cc(S(=O)(=O)O)c(N)c4c3C(=O)c3ccccc3C4=O)cc2)c(S(=O)(=O)O)c1
Assayed System: Malme-3M
GI50: > 100 µM (inactive)
//
Compound: CCOC(=O)c1sc2c(c1OC(=O)c1cc(OC)c(OC)c(OC)c1)c(=O)n(-c1ccccc1)c(=S)n2-c1ccccc1
Assayed System: Malme-3M
GI50: > 100 µM (inactive)
//
Compound: O=C(CSc1nc2ccc(Cl)cc2c(=O)n1-c1ccccc1)N/N=C1\C(=O)Nc2ccc(F)cc21
Assayed System: Malme-3M
GI50: 3.57 µM (inactive)
//
Compound: CC(C)S(=O)(=O)ON1C(=O)c2ccc([N+](=O)[O-])cc2C1=O
Assayed System: Malme-3M
GI50: > 100 µM (inactive)
//
Compound: CN(C)Nc1cc(=O)[nH]c(=O)[nH]1
Assayed System: Malme-3M
GI50: > 100 µM (inactive)
//
Compound: COc1ccc(OC)c(N2C(=O)/C(=C\c3ccccc3)SC2c2cc(OC)c(OC)c(OC)c2)c1 (stereo not drawn)
Assayed System: Malme-3M
GI50: > 100 µM (inactive)
//
Compound: Cc1cccc2c(N)c3cccc(C(=O)NCC[N+]4(Cc5ccc([N+](=O)[O-])cc5)CCOCC4)c3nc12
Assayed System: Malme-3M
GI50: 29.4 µM (inactive)
//
Compound: Nc1cc2c3c(c1)Oc1cc(N)cc4c1C3c1c(cc(N)cc1O4)O2
Assayed System: Malme-3M
GI50: 6.32 µM (inactive)
//
Compound: CN(COC(=O)c1ccccc1)c1nc(N(C)COC(=O)c2ccccc2)nc(N(C)COC(=O)c2ccccc2)n1
Assayed System: Malme-3M
GI50: > 100 µM (inactive)
//
Compound: Cc1ccc2c(c1)C(=O)C1(Cc3ccccc3C1=O)C2 (stereo not drawn)
Assayed System: Malme-3M
GI50: > 100 µM (inactive)
//
Compound: COC(=O)C(Cc1ccccc1)NP(=O)(O)OCC1OC(n2cc(Br)c(=O)[nH]c2=O)CC1O (stereo not drawn)
Assayed System: Malme-3M
GI50: > 100 µM (inactive)
//
Compound: COC(=O)C12C34C=CC5(CCC6(C=CC1(CC3)O6)C52C(=O)OC)O4 (stereo not drawn)
Assayed System: Malme-3M
GI50: > 100 µM (inactive)
//
Compound: O=c1c2ccccc2nc2n1NC(c1c(Cl)cccc1Cl)N2c1cccc(Cl)c1 (stereo not drawn)
Assayed System: Malme-3M
GI50: 8.99 µM (inactive)
